Target: T1, hRET.mmh (human, UniProt P07949 29-635, biotinylated in the ELISA of Example 4 (biot-hRET.mmh); not in the SPR of Example 3)
T1 construct: also called biot-hRET.mmh; soluble monomeric human RET
Assay: competition sandwich ELISA: 1 nM biot-hRET.mmh + antibody, plate-coated GDNF/GFRα1 co-complex
Exercise: for every item that follows, state its recorded IC50.

# count of solved cases: 2
H4H8076P (antibody, human IgG4, V domains shown, human IgG4 Fc (H4H prefix)) VH: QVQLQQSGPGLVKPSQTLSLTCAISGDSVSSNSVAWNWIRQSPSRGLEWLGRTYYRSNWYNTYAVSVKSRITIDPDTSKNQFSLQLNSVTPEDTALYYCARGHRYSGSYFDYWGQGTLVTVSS VL: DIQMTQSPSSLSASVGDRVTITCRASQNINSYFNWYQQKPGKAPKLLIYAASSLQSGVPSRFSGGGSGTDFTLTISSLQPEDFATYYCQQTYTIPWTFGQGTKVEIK : < 0.25 nM
H4H8067P (antibody, human IgG4, V domains shown, human IgG4 Fc (H4H prefix)) VH: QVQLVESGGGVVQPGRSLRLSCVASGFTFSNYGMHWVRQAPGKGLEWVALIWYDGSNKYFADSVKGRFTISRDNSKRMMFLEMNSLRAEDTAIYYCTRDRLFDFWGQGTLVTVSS VL: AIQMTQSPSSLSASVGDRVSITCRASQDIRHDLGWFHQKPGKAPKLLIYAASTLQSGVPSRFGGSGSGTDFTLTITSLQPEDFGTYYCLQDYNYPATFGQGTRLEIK : < 0.25 nM

Consider now this further binder.
Ask: Entry under review: H4H8083P (antibody, human IgG4, V domains shown, human IgG4 Fc (H4H prefix)) VH: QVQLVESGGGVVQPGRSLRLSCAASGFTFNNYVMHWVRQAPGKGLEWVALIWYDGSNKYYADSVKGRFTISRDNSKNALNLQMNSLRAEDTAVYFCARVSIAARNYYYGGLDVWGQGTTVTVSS VL: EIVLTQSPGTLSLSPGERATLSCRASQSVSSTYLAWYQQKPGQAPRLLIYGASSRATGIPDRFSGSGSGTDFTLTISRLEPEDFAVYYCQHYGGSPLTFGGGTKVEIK . Reported IC50?
Result: < 0.25 nM

This collection of values is drawn from patent US20220185900A1.
